test.method.notes: Intrinsic clearance in monkey microsomes at 0.3 mM
Type: ADME, Macaca mulatta, Microsome
condition.details: rhesus monkey
endpoint.label: CLint scaled (mL/min/kg)
API: value field is a number in mL/min/kg; no unit string.

Req: What CLint scaled value was documented for this compound, `Cc1ccc(F)cc1CO[C@H]1CCc2ccc(N3CCNC[C@H]3C)nc21` ?
Resp: 350

###

target: 5-hydroxytryptamine receptor 2C (Homo sapiens) (UniProt P28335)
Sequence (whole entry): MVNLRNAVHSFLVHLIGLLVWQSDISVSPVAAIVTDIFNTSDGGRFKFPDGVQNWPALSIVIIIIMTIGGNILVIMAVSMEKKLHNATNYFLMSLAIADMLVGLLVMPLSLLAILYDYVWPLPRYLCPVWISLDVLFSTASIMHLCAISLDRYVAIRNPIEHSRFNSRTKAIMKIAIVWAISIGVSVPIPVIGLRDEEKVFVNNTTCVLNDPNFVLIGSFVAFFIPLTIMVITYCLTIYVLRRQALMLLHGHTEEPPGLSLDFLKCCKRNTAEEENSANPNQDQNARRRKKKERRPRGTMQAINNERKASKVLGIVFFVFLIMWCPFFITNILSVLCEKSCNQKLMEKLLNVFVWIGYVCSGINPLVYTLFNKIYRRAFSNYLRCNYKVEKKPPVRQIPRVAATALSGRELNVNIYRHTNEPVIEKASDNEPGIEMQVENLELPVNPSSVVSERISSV
test.method.notes: Agonist activity against human 5HT2C receptor by FLIPR assay
// label = 1 if Activity is not less than 70%, otherwise 0

Some solved cases for reference:
# molecule, label.class
records = [
    ("c1cc2sccc2c(N2CCNCC2)n1", 0),
    ("c1nc(N2CCNCC2)c2ccsc2n1", 1),
    ("Clc1ccccc1O[C@@H]1CCc2ccc(N3CCNCC3)nc21", 1),
    ("Fc1ccc(F)c(CO[C@H]2CCc3ccc(N4CCNCC4)nc32)c1", 1),
    ("Clc1ccccc1OC1CCc2ccc(N3CCNCC3)nc21 (configuration not stated)", 1),
]

Next up:
Req: Determine whether this molecule has Activity no lower than 70%: `COc1nc(N2CCNCC2)nc2c1CCCC2`
Resp: 0

###

target: 5-hydroxytryptamine receptor 2C (Homo sapiens, UniProt P28335)
test.method.notes: Agonist activity against human 5HT2C receptor by FLIPR assay
Format: functional
endpoint.label: pEC50
Quick note: pEC50 means taking -log10 of the concentration in moles per liter.

Req: What pEC50 value was documented for this compound, `Clc1ccccc1O[C@H]1CCc2ccc(N3CCNCC3)nc21` ?
Resp: 10.00

Req: What pEC50 value was documented for this compound, `Clc1ccccc1O[C@H]1CCCc2ccc(N3CCNCC3)nc21` ?
Resp: 8.00

Req: What pEC50 value was documented for this compound, `Brc1cn2ccnc2c(N2CCNCC2)n1` ?
Resp: 5.87

Req: What pEC50 value was documented for this compound, `c1cc2sccc2c(N2CCNCC2)n1` ?
Resp: 6.73

Req: What pEC50 value was documented for this compound, `c1cc2occc2c(N2CCNCC2)n1` ?
Resp: 6.79

Req: What pEC50 value was documented for this compound, `C[C@@H]1CNCCN1c1ccc2c(n1)[C@@H](OCc1cc(F)ccc1F)CC2` ?
Resp: 9.00

Req: What pEC50 value was documented for this compound, `Clc1cccc(COc2nc(N3CCNCC3)nc3sccc23)c1` ?
Resp: 5.92

Req: What pEC50 value was documented for this compound, `c1nc(N2CCNCC2)c2cc[nH]c2n1` ?
Resp: 6.12

Req: What pEC50 value was documented for this compound, `Fc1ccc(F)c(CO[C@H]2CCc3ccc(N4CCNCC4)nc32)c1` ?
Resp: 8.85

Req: What pEC50 value was documented for this compound, `c1nc(N2CCNCC2)c2sccc2n1` ?
Resp: 6.40

Req: What pEC50 value was documented for this compound, `Clc1ccccc1O[C@@H]1CCc2ccc(N3CCNCC3)nc21` ?
Resp: 7.66

Req: What pEC50 value was documented for this compound, `Cc1ccc(F)cc1CO[C@H]1CCc2ccc(N3CCNC[C@H]3C)nc21` ?
Resp: 8.47

Req: What pEC50 value was documented for this compound, `c1cc2c(nc1N1CCNCC1)CCCC2` ?
Resp: 7.60
